Collected log10(Ki) for Carbonic anhydrase 9 (Homo sapiens, UniProt Q16790) across several studies; compounds listed below.
outcome_measure: log10(Ki) (log10 of the value in nM)

compound	outcome_measure	number
Nc1cccc(O)c1	log10(Ki)	3.69
N#C/C(=C\c1ccco1)C(=O)Nc1ccc(S(N)(=O)=O)cc1	log10(Ki)	0.63
CCc1cc(-c2ccccc2)cc(-c2ccccc2)[n+]1Cc1ccc(S(N)(=O)=O)cc1	log10(Ki)	1.90
COc1ccc(C(=O)CSc2nccc(Nc3ccc(S(=O)(=O)Nc4ncccn4)cc3)n2)cc1	log10(Ki)	3.40
CC1(C)OB(c2ccc(N/C(S)=N/c3ccc(S(=O)(=O)Nc4ccc(S(N)(=O)=O)cc4)cc3)cc2)OC1(C)C	log10(Ki)	1.92
Cc1c(NC(=O)Nc2cccc(S(N)(=O)=O)c2)sc2nc3ccccc3n12	log10(Ki)	1.88
NS(=O)(=O)c1ccc(-n2cc(COc3ccnc(N4CCN(Cc5ccccc5)CC4)n3)nn2)cc1	log10(Ki)	1.59
CC(=O)OC[C@H]1O[C@@H](S(N)(=O)=O)[C@H](OC(C)=O)[C@@H](OC(C)=O)[C@@H]1OC(C)=O	log10(Ki)	3.59
CCNCC(O)COc1ccc(C(=O)NCCc2ccc(S(N)(=O)=O)cc2)cc1 (centres undefined)	log10(Ki)	1.34

###

Collected Ki for UniProt Q16790 across several studies; compounds listed below.

sample_smiles	study_target	unit_of_measurement	reported_relation	Ki
NS(=O)(=O)c1ccc(C(=O)N2CCN(C(=O)c3ccc(Br)cc3)CC2)cc1	UniProt Q16790	nM	=	8
Cn1cc(S(N)(=O)=O)c2cc(NC(=O)c3ccnc(Cl)c3)ccc21	UniProt Q16790	nM	=	5930
NS(=O)(=O)c1ccc(-c2ccc(Cc3ccc(C(=O)O)cc3)cc2)cc1	UniProt Q16790	nM	=	31.4
COc1ccc2cc(-c3cc(CO)nn3-c3ccc(S(N)(=O)=O)cc3)ccc2c1	UniProt Q16790	nM	=	19
NS(=O)(=O)OCc1ccc(-c2ccccc2)cc1	UniProt Q16790	nM	>	1000
COc1ccc(C(=O)CSc2nc(Nc3ccc(S(N)(=O)=O)cc3)c(C#N)c(-c3cc(OC)ccc3OC)n2)cc1	UniProt Q16790	nM	=	8930
NS(=O)(=O)c1ccc(CCN2C(=O)c3ccc(C(=O)Nc4ccc(Cl)cc4C(=O)O)cc3C2=O)cc1	UniProt Q16790	nM	=	7.3
CCOc1cccc(CCNC(=O)c2ccc(S(N)(=O)=O)cc2)c1	UniProt Q16790	nM	=	8.1
CCOc1ccc(S(=O)(=O)NCCO)cc1-c1nnc2c(n1)c(C)nn2C	UniProt Q16790	nM	=	38.1
NS(=O)(=O)c1ccc(-n2cc(C(=O)c3ccc(Cl)cc3)nn2)cc1	UniProt Q16790	nM	=	27.3
CCN(CC)c1ccc(/C=N/Cc2ccc(S(N)(=O)=O)cc2)c(OCc2cn(CCCOc3ccc4ccc(=O)oc4c3)nn2)c1	UniProt Q16790	nM	=	2180
NS(=O)(=O)c1ccc(C(=O)OCCCCO[N+](=O)[O-])cc1	UniProt Q16790	nM	=	165
NS(=O)(=O)c1cccc(NC(=O)Cn2ccc(=O)[nH]c2=O)c1	UniProt Q16790	nM	=	3120
Cc1cc(C)[n+](-c2cccc(O)c2)c(C)c1	UniProt Q16790	nM	=	680
Cc1cc(=O)oc2cc(NC(=O)OC(C)(C)C)ccc12	UniProt Q16790	nM	=	970
CC(=O)Nc1ccc(S(N)(=O)=O)cc1I	UniProt Q16790	nM	=	209
Cc1cc2nn(-c3ccccc3)c(C)c2c(=O)o1	UniProt Q16790	nM	=	41.4
O=C1c2ccccc2S(=O)(=O)N1Cc1ccc(Cl)cc1	UniProt Q16790	nM	=	19
COc1ccc(-c2cc(-c3ccc(Cl)cc3)nc3nc4n(-c5ccc(S(N)(=O)=O)cc5)nc(C(C)=O)n4c(=O)c23)cc1	UniProt Q16790	nM	=	330
CC(C)(C)N1C(=O)C=C(Cl)S1(=O)=O	UniProt Q16790	nM	=	227
NS(=O)(=O)c1ccc(/N=c2\scc(-c3cccc([N+](=O)[O-])c3)n2C2CCCCC2)cc1	UniProt Q16790	nM	=	193

###

Collected pKi for Carbonic anhydrase 9 (Homo sapiens) across several studies; compounds listed below.
pKi: −log10 of the molar value.
outcome_measure: pKi

compound	outcome_measure	number
NS(=O)(=O)c1ccc(NC(=O)Nc2ccc(Oc3ccccc3)cc2)cc1	pKi	7.16
CC1(C)OB(c2ccc(NC(=S)Nc3cccc(S(N)(=O)=O)c3)cc2)OC1(C)C	pKi	7.09
Cc1nn(-c2ccc(S(N)(=O)=O)cc2)c(Cl)c1C1CC(c2ccc(F)cc2)=NN1c1ccc(S(N)(=O)=O)cc1 (centres undefined)	pKi	7.35
NS(=O)(=O)c1ccc2nc(-n3cc(/C=N/O)c(-c4ccc(F)cc4)n3)sc2c1	pKi	6.65
CCOP(=O)(OCC)C(Nc1ccc(S(N)(=O)=O)cc1)c1cccc(Br)c1 (centres undefined)	pKi	7.21
NS(=O)(=O)c1ccc(NC(=O)Nc2nc(Nc3ccc(F)cc3)nc(N3CCCCC3)n2)cc1	pKi	6.82
COc1ccc(N2CCN(C(=S)SCC(=O)Nc3nc4ccc(S(N)(=O)=O)cc4s3)CC2)cc1	pKi	7.51
COc1ccc2nc(-c3ccccc3C)cc(C(=O)Nc3ccc4c(c3)c(S(N)(=O)=O)cn4C)c2c1	pKi	4.79
CCN1C(=O)c2ccccc2S1(=O)=O	pKi	6.63

###

Collected Ki for Carbonic anhydrase 9 (Homo sapiens, UniProt Q16790) across several studies; molecules listed below.
Threshold check on Ki: strictly below 10 nM is Y; on or above 10 nM is N.

sample_smiles	assigned_label
COc1ccc2c(C(=O)O)cc(=O)oc2c1	N
CC(C)C[C@@H](C(N)=O)n1cc(-c2ccc(S(N)(=O)=O)cc2)nn1	N
CC1(C)CC(=O)C2=C(C1)N(c1ccc(S(N)(=O)=O)cc1)C1=C(C(=O)CC(C)(C)C1)C2c1cccc(NS(=O)(=O)c2ccc3ccccc3c2)c1	N
CCOC(=O)c1cn(-c2ccc3c(c2)C=CS(=O)(=O)O3)nn1	N
CC(=O)OC[C@H]1O[C@@H](CC(=O)/C=C/c2ccc(O)cc2)[C@H](OC(C)=O)[C@@H](OC(C)=O)[C@H]1OC(C)=O	N
NS(=O)(=O)c1ccc(C(=O)N2CCN(C(=O)c3ccco3)CC2)cc1	N
NS(=O)(=O)c1ccc(C(=O)N2CCN(c3ccccc3)CC2)cc1	Y
NS(=O)(=O)c1ccc(/N=N/c2ccc(NCS(=O)(=O)[O-])cc2)cc1.[Na+]	Y
N#Cc1c(-c2ccccc2)nc(NNc2csc(Nc3ccc(S(N)(=O)=O)cc3)n2)[nH]c1=O	Y
NS(=O)(=O)c1ccc(C(=O)N2CCC(Cc3ccccc3)CC2)cc1	Y
COC(=O)c1cc(-c2cn(C(C)C)c3ccccc23)n[nH]1	N
COC(=O)C1=Cc2cc(C(=O)OC)ccc2OC(=O)C1	N
O=C(CN1C(=O)c2ccccc2S1(=O)=O)c1ccc(Cl)cc1Cl	N
CCN1CCN(c2cnn(-c3ccc(S(N)(=O)=O)cc3)c(=O)c2)CC1	N
NS(=O)(=O)c1ccccc1N1C(=O)c2ccc([N+](=O)[O-])cc2C1=O	N
NS(=O)(=O)c1ccc(-n2cc(Cn3ccc(=O)[nH]c3=O)nn2)cc1	Y
N#C/C(=C\c1ccc(O)c(O)c1)C(=O)Nc1ccc(S(N)(=O)=O)cc1	Y
O=C(N/C=C/C=C/c1ccc2c(c1)OCO2)Nc1ccc(C(=O)O)cc1	N
NS(=O)(=O)c1cccc(NC(=O)N/C=C/C=C/c2ccc3c(c2)OCO3)c1	N

###

Collected pKi for Carbonic anhydrase 9 (Homo sapiens, UniProt Q16790) across several studies; molecules listed below.
pKi: −log10 of the molar value.

molecule	reported_relation	pKi
CCOc1ccc(S(=O)(=O)NC[C@H](C)O)cc1-c1nnc2c(n1)c(C)nn2-c1ccc(C)cc1	=	7.86
NS(=O)(=O)c1ccccc1NC(=O)N/C=C/C=C/c1ccc2c(c1)OCO2	=	6.13
Cc1ccc(CNCCc2ccc(S(N)(=O)=O)cc2)cc1	=	7.99
Cc1cc2c(c(C)nn2-c2ccccc2)c(=O)o1	=	7.58
N#Cc1ccc(CN2C(=O)/C(=N\c3ccc(NC(=O)Nc4ccc(S(N)(=O)=O)cc4)cc3)c3ccccc32)cc1	=	8.01
CC(=O)N1N=C(c2cccc(OS(N)(=O)=O)c2)CC1c1ccc(Cl)cc1 (stereo not given)	=	8.16
NS(=O)(=O)c1ccc2nc(NC(=O)CSC(=S)N3CCN(c4ccccc4)CC3)sc2c1	=	6.94
NS(=O)(=O)c1ccc(-n2cc(COC(=O)c3ccc4c(c3)C(=O)N(c3ccc(Cl)cc3)C4=O)nn2)cc1	=	7.31
NS(=O)(=O)c1ccc(-c2nnc3sc(-c4ccc([N+](=O)[O-])cc4)nn23)cc1	=	7.39
NS(=O)(=O)c1ccc(NCC(=O)Nc2nc3ccc(S(N)(=O)=O)cc3s2)cc1	=	8.32
CN1CCN(C(=O)c2ccc(S(N)(=O)=O)cc2)CC1CCO (racemic)	=	8.17
Cc1c(NC(=O)Nc2ccc(S(N)(=O)=O)cc2)sc2nc3ccccc3n12	=	7.20
COc1ccc(NC(=O)c2ccc3c(c2)C(=O)N(c2ccccc2)C3=O)c(C(=O)O)c1	=	5.09
CC1(C)C=Cc2cc3ccc(=O)oc3cc2O1	=	5.12
O=c1cc(-c2ccccc2F)c2ccc(O)cc2o1	=	7.50
Nc1c(F)cc(S(N)(=O)=O)cc1Cl	=	7.92
NS(=O)(=O)c1ccc(-n2cc(/C=N\Nc3nc(-c4cc5ccccc5oc4=O)cs3)c(-c3ccccc3)n2)cc1	=	7.70
Nc1nc(-c2ccc(NC(=O)c3ccc(C(=O)NO)cc3)cc2)cn2c(=O)n(-c3ccccc3)nc12	<	4.00
CC(=O)c1nnn(-c2ccc(S(N)(=O)=O)cc2)c1C	=	5.04
NS(=O)(=O)c1ccc(OCCCO[N+](=O)[O-])cc1	=	7.08
